# credit: patent US20100099703A1

- Assayed System: rat Y5 receptor (Rattus norvegicus, UniProt Q63634)
- Construct: expressed in transfected cells; host or cells: C6 cells (membrane preparation)
- Sequence (Q63634 whole entry): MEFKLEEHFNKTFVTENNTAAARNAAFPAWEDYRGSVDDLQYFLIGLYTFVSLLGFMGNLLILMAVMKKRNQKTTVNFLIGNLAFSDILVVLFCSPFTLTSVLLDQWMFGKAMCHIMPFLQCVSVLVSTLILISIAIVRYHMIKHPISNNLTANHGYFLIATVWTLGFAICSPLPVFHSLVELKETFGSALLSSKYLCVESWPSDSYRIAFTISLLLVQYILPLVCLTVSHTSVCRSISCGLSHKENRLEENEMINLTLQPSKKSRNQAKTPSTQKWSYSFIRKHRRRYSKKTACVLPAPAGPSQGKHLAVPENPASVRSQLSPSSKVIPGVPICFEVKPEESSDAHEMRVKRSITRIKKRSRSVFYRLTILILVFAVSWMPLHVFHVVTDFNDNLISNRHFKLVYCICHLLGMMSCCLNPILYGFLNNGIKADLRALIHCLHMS
- Test Details: Neuropeptide Y5 receptor binding ([125I]-PYY displacement, membranes of transfected C6 cells)
- Condition Description: compound at 10^−6 M; radioligand [125I]-PYY 100 pM; C6 cells transfected with rat Y5 receptor
- Protocol: Neuropeptide Y5 Receptor Binding Studies: The methods used for membrane preparation and binding are similar to those described by Y. Hu, B. T. Bloomquist et al. in Y. Hu, B. T. Bloomquist et al., The Journal of Biological Chemistry, 1996, 271, 26315-26319 with modifications. […] The quantity of radioactivity present was determined in a Wallac Winspectral 1414 counter. Non specific binding was determined in the presence of 1 μM de pNPY. […]
Measure Name: inhibition at 1 µM (%)

Solved cases (4 shown):
{"Smiles Structure": "O=C(CN1CCC(Nc2ccccc2O)CC1)Nc1ccc2c(c1)CCCC2=O", "inhibition at 1 µM, %": 44.7}
{"Smiles Structure": "O=C(CN1CCC(Nc2cccc(O)c2)CC1)Nc1ccc2c(c1)-c1ccccc1C2=O", "inhibition at 1 µM, %": 76.9}
{"Smiles Structure": "O=C(CN1CCC(Nc2ccc(O)cc2)CC1)Nc1ccc2c(c1)-c1ccccc1C2=O", "inhibition at 1 µM, %": 101}
{"Smiles Structure": "CCn1c2ccccc2c2cc(NC(=O)CN3CCC(Nc4cccc(O)c4)CC3)ccc21", "inhibition at 1 µM, %": 105}

I: CCn1c2ccccc2c2cc(NC(=O)CN3CCC(Nc4ccccc4O)CC3)ccc21
II: CCN(CCO)c1ccc(NC(=O)CN2CCC(Nc3cccc(O)c3)CC2)cc1
III: CC(=O)c1ccc(NC(=O)CN2CCC(Nc3ccccc3O)CC2)cc1
Rank the items in ascending order with respect to inhibition at 1 µM. In your reply, arrange the labels in the requested order.
III, II, I
(III: 14%, II: 51.2%, I: 97.8%)
